Provenance of the data: patent US20200079851A1

testedOn: T1, human LILRB4 (human, UniProt Q8NHJ6 22-259, limits assumed)
T1 construct: also called leukocyte immunoglobulin-like receptor subfamily B member 4
assayMethodText: ELISA
measure: EC50 (nM)
Numbers only, in nM.

Some binders with recorded EC50:
binder	endpointResult
anti-LILRB4 rabbit monoclonal antibody #223 (antibody, V domains shown, Rabbit mAb) VH: EQSVKESGGRLVTPGTPLTLTCIVSGFSLNNYAISWVRQAPEKGLEWIGMIRSDGHVDYATWAKGRFTISKTSTTVDLKMTSLTTEDTATYFCARGGHFFNPWGPGTLVTISS VL: ELVMTQTPSPVSAAVGGTVTISCQSSQTVYNYNELAWYQQKPGQPPKLLIDAASTLASGVPSRFSGSGSGTQFTLKISEVQCDDAATYYCQGTYYISGWYYTFGGGTEVVVK	0.0897
anti-LILRB4 rabbit monoclonal antibody #120 (antibody, V domains shown, Rabbit mAb) VH: QSLEESGGRLVTPGTPLTLTCTVSGIDLNKYAMTWVRQAPGKGLEYIGFINIVGIAGYATWAKGRFTISKTSTTVDLKVTSPTTEDTATYFCARNWIRLDLWGQGTLVTVSS VL: ELDLTQTPASVSAAVGGTVTISCQSSESLYKKNYLSWFQQKPGQPPKLLIFEASKLASGVPSRFSGSGSGTQFTLTISDVQCDDAASYYCLGDYTNGRDTTFGGGTEVVVK	0.0795
anti-LILRB4 rabbit monoclonal antibody #8 (antibody, V domains shown, also called mAb 8) VH: QSVKESGGGLVTPGGTLTLTCTASGFSLISYDMYWVRQAPGKGLEYIGIIYSDGYTFYATGAKGRITISRTSTTVDLKITSPTTEDTATYFCATNAFALWGQGTLVTISS VL: ELDLTQTPSSVSAAVGGTVTISCQSSQNVYNNNWLVWLQQKPGQPPKRLIYTASSLASGVPSRFAGSGSATQFTLTISDLECGDAATYYCAGGYSGPIYTFGGGTEVEIK	0.0629
anti-LILRB4 mAb C84 (antibody, V domains shown, Mouse mAb; also called anti-hLILRB4) VH: QIQLVQSGPELKKPGETVKISCKASGYTFTNYGMNWVKQAPGKGLKWMGWINTYTGEPTYADDFKGRFAFSLETSASTAYLQINNLKNEDMATYFCASIYYHTSLWYFDVWGAGTTVTVSS VL: DVLMTQTPLSLPVSLGDQASISCRSSQNIVHSNGNTYLEWYLQKPGQSPKLLIYRVSNRFSGVPVRFSGSGSGTDFTLKISRVEAEDLGVYYCFQGSHVPLTFGAGTKLELK	0.568
anti-LILRB4 rabbit monoclonal antibody #139 (antibody, V domains shown) VH: EQSLEESGGRLVTPGTPLTLTCTVSGFSLNSYAMAWVRQAPGKGLEWIGIIGLSTMTYYASWVNGRFTISKTSTTVDLKMTSLTTEDTATYFCVRNDVYWAFNLWGQGTLVTVSS VL: ELDLTQTPSSVSAGVGGTVSISCQSSESVVNNHALSWYQQKPGQPPKLLIYKASTLASGVPSRFSGSGSGAQFTLTISGVQCDDAATYYCQGGFYSGISDYPFGGGTEVEIK	0.0832

For every record below, what is its EC50?
1. anti-LILRB4 rabbit monoclonal antibody #208 (antibody, V domains shown, Rabbit mAb) VH: EQSVEESGGGLVTPGGTLTLTCTVSGFSLSNNAMSWVRQAPGKGLEWIGVILLSGTTYYASWAKGRFTISKTSTTVDLKITSPTTEDTATYFCAIAIGSRPFALWGQGTLVTISS VL: ELVMTQTPSSTSAAVGGTVTINCQSSQSVYSNWLSWFQQKPGQPPKPLIYLASTLASGVPSRFSGSGSGTQFTLTISDVQCDDAATYYCQGGYNGNIYTFGGGTEVVVK
2. anti-LILRB4 rabbit monoclonal antibody #128-1 (antibody, V domains shown, Rabbit mAb) VH: EQSVEESEGRLVTPGGSLTLTCTVSGFGLSSWAMAWVRQAPGKGLEWIGIIGVSGKIYYPTWAKGRFTISRTSTTVDLKIASPTTEDTATYFCAREPYGDSLWGQGTLVTISS VL: ELVMTQTPSPVSAAVGGTVTISCQSSQNISTYLSWYQQKPGQPPKFLIYQASKLASGVSSRFKGSGSGTQFTLTISDVQCDDAASYYCAGWKSYSNDDNDFGGGTEVVVK

RESULT:
1. 0.132
2. 0.139
